I'd appreciate it if you could supply O2 permeability values for the items below.
Please report the result as a number followed by the unit.

Query *c1cccc(Oc2cccc(N3C(=O)c4ccc(C(c5ccc6c(c5)C(=O)N(*)C6=O)(C(F)(F)F)C(F)(F)F)cc4C3=O)c2)c1 (repeat unit) yields O2 permeability of 0.68 Barrer

Lab note: measured O2 permeability of *Oc1c(C)cc(-c2cc(C)c(Oc3ccc(S(=O)(=O)c4ccc(*)cc4)cc3)c(C)c2)cc1C (repeat unit) was 4.55 Barrer

// O2 permeability value for *Oc1c(Br)cc(C(c2cc(Br)c(OC(=O)c3cc(C(*)=O)cc(C(C)(C)C)c3)c(Br)c2)(C(F)(F)F)C(F)(F)F)cc1Br (repeat unit) : 22.1 Barrer

For *CC(*)C(=O)OCC (repeat unit) the compound record lists O2 permeability as 19 Barrer

For reference, reported O2 permeability for *N=P(*)(C)c1ccccc1 (repeat unit) stands at 1.8 Barrer

For *CC* (repeat unit) the compound record lists O2 permeability as 0.735 Barrer

GET /value?item= *c1ccc(-c2ccc(Oc3ccc4c(c3)C(C)(c3ccc(Oc5ccc(-c6ccc(-n7c(=O)c8cc9c(=O)n(*)c(=O)c9cc8c7=O)cc6)cc5C(F)(F)F)cc3)CC4(C)C)c(C(F)(F)F)c2)cc1 (repeat unit) &field=O2 permeability returns 12.2 Barrer

Record summary for *C(=C(*)c1ccc2c(c1)C(C)(C)C(C)(C)C2(C)C)c1ccccc1 (repeat unit) : reported O2 permeability = 12700 Barrer

For reference, reported O2 permeability for *Oc1c(Br)cc(C(C)(C)c2cc(Br)c(OC(=O)c3cccc(C(*)=O)c3)c(Br)c2)cc1Br (repeat unit) stands at 1.29 Barrer

O2 permeability reading for *CC(*)[Si](C)(C)C (repeat unit) : 44 Barrer

Measured O2 permeability of *CC(*)c1ccc(OC(C)=O)cc1 (repeat unit) : 3.1 Barrer

Looking up *c1c(C)cc(C)c(N2C(=O)c3ccc(-c4ccc5c(c4)C(=O)N(*)C5=O)cc3C2=O)c1C (repeat unit) , I found its O2 permeability recorded as 32 Barrer

Lab book: O2 permeability of *c1ccc(C(C)(C)c2ccc(N3C(=O)c4ccc(Oc5ccc(Oc6ccc7c(c6)C(=O)N(*)C7=O)cc5)cc4C3=O)cc2)cc1 (repeat unit) noted as 0.586 Barrer

O2 permeability reading for *c1ccc(Oc2ccc(N3C(=O)c4cc(Oc5ccccc5)c(-c5cc6c(cc5Oc5ccccc5)C(=O)N(*)C6=O)cc4C3=O)cc2)cc1 (repeat unit) : 3.59 Barrer

Data point: *c1cc(C(=O)OCCC(F)(F)C(F)(F)C(F)(F)C(F)(F)C(F)(F)C(F)(F)F)cc(N2C(=O)c3ccc(C(c4ccc5c(c4)C(=O)N(*)C5=O)(C(F)(F)F)C(F)(F)F)cc3C2=O)c1 (repeat unit) ; O2 permeability = 4.74 Barrer

O2 permeability recorded for this compound, *Nc1ccc(*)cc1OC (repeat unit) , is 0.202 Barrer

The measured O2 permeability associated with */C(C)=C(/*)[Si](C)(C)C (repeat unit) reads 9000 Barrer

The value of O2 permeability measured for the compound *O[Si](*)(C)CC (repeat unit) turned out to be 332 Barrer

Measured O2 permeability, *Oc1ccc(C(c2ccc(OC(*)=O)cc2)(C(F)(F)F)C(F)(F)F)cc1 (repeat unit) : 6.9 Barrer

====

Measure Name: CO2 permeability
Your answer should be a number followed by the unit of measure.

Sample *CC(*)C (repeat unit) ; CO2 permeability observed: 9.2 Barrer

# CO2 permeability (compound: *c1ccc(-c2ccc(Oc3ccc(C4(c5ccc(Oc6ccc(-c7ccc(N8C(=O)c9ccc(Oc%10ccc(C(C)(C)c%11ccc(Oc%12ccc%13c(c%12)C(=O)N(*)C%13=O)cc%11)cc%10)cc9C8=O)cc7)cc6C(F)(F)F)cc5)c5ccccc5C(=O)N4c4ccccc4)cc3)c(C(F)(F)F)c2)cc1 (repeat unit) ) is 16.6 Barrer

Briefly, CO2 permeability measured for *C(C)=C(*)CCCCC (repeat unit) : 200 Barrer

====

Can you tell me H2 permeability for the items I'm about to list?
Don't forget the unit after the number, please.

Form field H2 permeability, entry *CC(*)C(=O)OCC (repeat unit) : 60.4 Barrer

Entry *Oc1ccc(C(C)(C)c2ccc(OC(=O)c3cccc(C(*)=O)c3)c(C(C)C)c2)cc1C(C)C (repeat unit) , H2 permeability reported as 18.9 Barrer

In plain terms, *C(C(=O)OC(C)C)C(*)C(=O)OC1CCCCC1 (repeat unit) has a documented H2 permeability of 41 Barrer

Per the records, this compound ( *c1c(C)cc(C)c(N2C(=O)c3ccc(C(c4ccc5c(c4)C(=O)N(*)C5=O)(C(F)(F)F)C(F)(F)F)cc3C2=O)c1C (repeat unit) ) has H2 permeability equal to 435 Barrer

Query *CC(*)C(=O)OCCCCCCCCCC (repeat unit) yields H2 permeability of 92.7 Barrer

Just so you know, measured H2 permeability for *c1cc(C)c2c(c1)S(=O)(=O)c1cc(N3C(=O)c4ccc(-c5ccc6c(c5)C(=O)N(*)C6=O)cc4C3=O)cc(C)c1-2 (repeat unit) came out at 28.2 Barrer

The compound listed as *Oc1c(-c2ccccc2)cc(*)cc1-c1ccccc1 (repeat unit) has a reported H2 permeability of 28 Barrer

*c1cccc(N2C(=O)c3ccc(Oc4ccc(Oc5ccc6c(c5)C(=O)N(*)C6=O)cc4)cc3C2=O)c1 (repeat unit) has a reported H2 permeability of 3.75 Barrer

// H2 permeability value for *C(=C(*)c1ccc2c(c1)C(C)(C)CC2(C)C)c1cccc(F)c1 (repeat unit) : 27000 Barrer

Lab book: H2 permeability of *c1ccc(Oc2ccc(N3C(=O)c4ccc(-c5ccc6c(c5)C(=O)N(*)C6=O)cc4C3=O)cc2)cc1 (repeat unit) noted as 3.5 Barrer

The compound listed as *c1c(C)cc2c(c1C)C1c3ccccc3C2c2cc(C)c(N3C(=O)c4ccc(C(c5ccc6c(c5)C(=O)N(*)C6=O)(C(F)(F)F)C(F)(F)F)cc4C3=O)c(C)c21 (repeat unit) has a reported H2 permeability of 1400 Barrer

GET /value?item= *Nc1ccc(*)cc1OC (repeat unit) &field=H2 permeability returns 6.04 Barrer

H2 permeability recorded for this compound, *c1c(C)c(C)c(N2C(=O)c3ccc(Oc4cc(C)c(Oc5ccc6c(c5)C(=O)N(*)C6=O)c(C)c4C)cc3C2=O)c(C)c1C (repeat unit) , is 230 Barrer

Looking up *C(=C(*)c1ccc2c(c1)C(C)(C)CC2(C)C)c1ccc(Cl)cc1 (repeat unit) , I found its H2 permeability recorded as 20600 Barrer

Quick note, H2 permeability for *c1ccc(C(C)(C)c2ccc(-c3nc4cc(-c5ccc6[nH]c(*)nc6c5)ccc4[nH]3)cc2)cc1 (repeat unit) landed at 12.2 Barrer

====

Please go through the items and note down their log10(CO2 permeability).
Record value = log10 of CO2 permeability given in Barrer.

Noted for *OC1OC(OC(C)=O)C(*)C(O)C1OC(C)=O (repeat unit) : its log10(CO2 permeability) reads 0.54

The recorded log10(CO2 permeability) for entry *Oc1ccc(C2(c3ccc(OC(=O)c4cccc(C(*)=O)c4)cc3)c3ccccc3-c3ccccc32)cc1 (repeat unit) equals 1.30

Value of measured log10(CO2 permeability) for the entry *Oc1ccc(C2(c3ccc(Oc4ccc(S(=O)(=O)c5ccc(*)cc5)cc4)cc3)C3CC4CC(C3)CC2C4)cc1 (repeat unit) : 0.86

The measured log10(CO2 permeability) associated with *Oc1ccc(C(c2ccc(Oc3ccc(C(=O)c4ccc(C(C)(C)c5ccc(C(=O)c6ccc(*)cc6)cc5)cc4)cc3)cc2)(C(F)(F)F)C(F)(F)F)cc1 (repeat unit) reads 0.90

// recorded log10(CO2 permeability) for *Oc1ccc(C(C)(C)c2ccc(OC(=O)c3ccc(C(=O)Oc4cc(-c5cc(*)cc6ccccc56)c5ccccc5c4)cc3)cc2)cc1 (repeat unit) : 1.00

Quick note, log10(CO2 permeability) for *Nc1ccc(C(=O)c2ccc(NC(=O)c3cc(C(*)=O)cc(C(C)(C)C)c3)cc2)cc1 (repeat unit) landed at 0.70

The recorded log10(CO2 permeability) for *Oc1ccc(Oc2ccc(C(=O)c3ccc(*)cc3)cc2)cc1C(C)(C)C (repeat unit) is 0.67

Form field log10(CO2 permeability), entry *c1ccc(C(c2ccc(N3C(=O)c4ccc(Oc5cc(C)c(Oc6ccc7c(c6)C(=O)N(*)C7=O)c(C)c5C)cc4C3=O)cc2)(C(F)(F)F)C(F)(F)F)cc1 (repeat unit) : 1.73

Entry under test: *Oc1cc2c(cc1O*)C1(c3cc(C)c(C)cc3-2)c2cc(C)c(C)cc2-c2cc3c(cc21)Oc1c(C#N)c(*)c(*)c(C#N)c1O3 (repeat unit) . Its log10(CO2 permeability) was 4.12

The reported value for *Nc1ccc(*)cc1OC (repeat unit) in terms of log10(CO2 permeability) is 0.03

Noted for *C(=C(*)c1ccc([Si](C)(C)CCCCCCCC)cc1)c1ccc(CCCC)cc1 (repeat unit) : its log10(CO2 permeability) reads 2.04

Lab book: log10(CO2 permeability) of *CC(*)OC1CC2CCC1C2 (repeat unit) noted as 1.40

In plain terms, */C=C/c1ccc(*)cc1[Si](C)(C)CCCCCCCCCCCCCCCCCC (repeat unit) has a documented log10(CO2 permeability) of 1.79

Entry under test: *c1ccc2c3c(ccc2c1)OC1Oc2ccc4cc(N5C(=O)c6ccc(C(c7ccc8c(c7)C(=O)N(*)C8=O)(C(F)(F)F)C(F)(F)F)cc6C5=O)ccc4c2C31 (repeat unit) . Its log10(CO2 permeability) was 1.48

Record summary for *c1cccc(C(c2cccc(N3C(=O)c4ccc(C(=O)c5ccc6c(c5)C(=O)N(*)C6=O)cc4C3=O)c2)(C(F)(F)F)C(F)(F)F)c1 (repeat unit) : reported log10(CO2 permeability) = 0.02

Sample *c1cc(C)c(C)c(N2C(=O)c3ccc(Oc4cc(C)c(Oc5ccc6c(c5)C(=O)N(*)C6=O)c(C)c4C)cc3C2=O)c1C (repeat unit) ; log10(CO2 permeability) observed: 2.04

Summary for this molecule, *O[Si](*)(C)CC (repeat unit) : log10(CO2 permeability) is 3.18

Summary for this molecule, *c1cccc(N2C(=O)c3ccc(Oc4ccc(Oc5ccc6c(c5)C(=O)N(*)C6=O)cc4)cc3C2=O)c1 (repeat unit) : log10(CO2 permeability) is -0.22

Item: *C(=C(*)c1cccc([Si](C)(C)C)c1)c1ccccc1 (repeat unit) | log10(CO2 permeability): 3.67

// sample *Oc1ccc(C(C)(c2ccccc2)c2ccc(OC(=O)c3cccc(C(*)=O)c3)cc2)cc1 (repeat unit) , its log10(CO2 permeability) was 1.12

GET /value?item= *c1ccc(C(c2ccc(-n3c(=O)c4cc5c(=O)n(*)c(=O)c5cc4c3=O)cc2)(C(F)(F)F)C(F)(F)F)cc1 (repeat unit) &field=log10(CO2 permeability) returns 1.44

Form: molecule = *O[Si](C)(C)CC[Si](*)(C)C (repeat unit) ; log10(CO2 permeability) = 3.27

Measured log10(CO2 permeability), *c1c(C)c(C)c(N2C(=O)c3ccc(C(c4ccc5c(c4)C(=O)N(*)C5=O)(C(F)(F)F)C(F)(F)F)cc3C2=O)c(C)c1C (repeat unit) : 2.87

get_value(item= *CCOC(=O)c1ccc2cc(C(=O)O*)ccc2c1 (repeat unit) , readout=log10(CO2 permeability)) returns -0.88

In plain terms, *Oc1ccc(C(C)(C)c2ccc(OC(*)=O)cc2)cc1 (repeat unit) has a documented log10(CO2 permeability) of 0.88
